Values from patent US20240239738A1

- run description: in vivo PK profiles
- conditions: in vivo, iv, 10 mg/kg; read-out: VSS
quantity measured: Vd (L/kg)

INSERT INTO measurements (compound, quantity_measured, output_unit, observed) VALUES
  ('N[C@H]1C=C(C(=O)O)CCC1=C(F)F [Compound 14]', 'Vd', 'L/kg', 0.64);

###

Below, each entry is listed with its recorded kinact.
- target: hOAT (Homo sapiens)
- Construct: made in house
- Sequence (P04181 with tags, fused parts or gaps): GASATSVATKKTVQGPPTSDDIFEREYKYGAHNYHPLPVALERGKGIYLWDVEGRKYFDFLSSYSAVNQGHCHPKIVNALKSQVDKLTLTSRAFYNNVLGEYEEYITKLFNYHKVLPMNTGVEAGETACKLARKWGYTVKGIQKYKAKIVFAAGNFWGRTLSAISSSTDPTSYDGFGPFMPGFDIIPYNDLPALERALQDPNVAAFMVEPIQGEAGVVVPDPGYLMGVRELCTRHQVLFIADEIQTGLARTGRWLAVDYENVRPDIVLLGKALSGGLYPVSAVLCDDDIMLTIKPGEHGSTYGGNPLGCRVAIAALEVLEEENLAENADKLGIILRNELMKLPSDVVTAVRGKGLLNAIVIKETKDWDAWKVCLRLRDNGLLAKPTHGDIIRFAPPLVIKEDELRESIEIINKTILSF
- run description: Coupled enzyme assay, time-dependent inactivation of hOAT
- Format: biochemical
- conditions: hOAT
quantity measured: kinact (s⁻¹)

INSERT INTO assay_data (compound, target, quantity_measured, observed) VALUES
  ('N[C@H]1C[C@@H](C(=O)O)CCC1=C(F)F [Compound 12]', 'hOAT (Homo sapiens)', 'kinact', 0.00193),
  ('N[C@H]1CC(C(=O)O)=CCC1=C(F)F [Compound 15]', 'hOAT (Homo sapiens)', 'kinact', 0.0009),
  ('N[C@H]1C=C(C(=O)O)CCC1=C(F)F [Compound 14]', 'hOAT (Homo sapiens)', 'kinact', 0.00323),
  ('N[C@H]1C[C@H](C(=O)O)CCC1=C(F)F [Compound 13]', 'hOAT (Homo sapiens)', 'kinact', 0.0015);
